ASSAY METRIC: melting point

Record Cc1ccc(C(=O)CN2CCN(C(=O)c3cc(C(F)(F)F)cc(C(F)(F)F)c3)[C@H](Cc3c[nH]c4ccccc34)C2)cc1C.Cl . Reported melting point: 166 °C (dec.)

Record Cl.Cl.O=C(c1cc(C(F)(F)F)cc(C(F)(F)F)c1)N1CCN(CCCN2CCOCC2)C[C@H]1Cc1c[nH]c2ccccc12 . Reported melting point: 265 °C (dec.)

Record Cc1ccc(C(=O)CN2CCN(C(=O)c3cc(C(F)(F)F)cc(C(F)(F)F)c3)[C@H](Cc3c[nH]c4ccccc34)C2)cc1.Cl . Reported melting point: 203 °C (dec.)

Record Cl.O=C(CN1CCN(C(=O)c2cc(C(F)(F)F)cc(C(F)(F)F)c2)[C@H](Cc2c[nH]c3ccccc23)C1)c1cccc(F)c1 . Reported melting point: 195 °C (dec.)

Record COCC1CN(CC#CCN2CCN(C(=O)c3cc(C(F)(F)F)cc(C(F)(F)F)c3)[C@H](Cc3ccc(C)c(C)c3)C2)CCO1.Cl.Cl (stereo partly shown) . Reported melting point: 150 to 165 °C

Record Cl.O=C(CN1CCN(C(=O)c2cc(C(F)(F)F)cc(C(F)(F)F)c2)[C@H](Cc2c[nH]c3ccccc23)C1)N1CCN(c2ccc(F)cc2)CC1 . Reported melting point: 183 °C (dec.)

Record COCC1COCCN1CC#CCN1CCN(C(=O)c2cc(C(F)(F)F)cc(C(F)(F)F)c2)[C@H](Cc2ccc(C)c(C)c2)C1.Cl.Cl (stereo partly shown) . Reported melting point: 140 to 155 °C

Where do the numbers come from? From patent US20020010182A1.
